target.or.system: FTO protein (Homo sapiens)
Sequence (Q9C0B1 whole entry): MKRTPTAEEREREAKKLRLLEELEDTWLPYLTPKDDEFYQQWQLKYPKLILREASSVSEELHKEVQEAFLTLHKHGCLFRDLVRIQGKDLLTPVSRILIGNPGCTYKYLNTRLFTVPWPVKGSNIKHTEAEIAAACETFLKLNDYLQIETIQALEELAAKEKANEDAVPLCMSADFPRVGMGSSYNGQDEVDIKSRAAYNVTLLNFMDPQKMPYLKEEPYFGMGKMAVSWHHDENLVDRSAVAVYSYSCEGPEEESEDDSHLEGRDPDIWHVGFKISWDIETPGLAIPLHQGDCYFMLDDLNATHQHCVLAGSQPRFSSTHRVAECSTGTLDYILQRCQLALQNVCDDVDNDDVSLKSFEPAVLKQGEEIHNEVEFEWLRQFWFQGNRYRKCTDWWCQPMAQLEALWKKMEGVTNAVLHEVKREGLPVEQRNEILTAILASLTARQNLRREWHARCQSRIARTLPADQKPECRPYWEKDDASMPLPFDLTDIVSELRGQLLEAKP
assay.protocol: FTO enzyme inhibition assay (demethylation of m6A RNA probe)
Type: biochemical
Set-up: 6His (C); purchased ProteoGenics SAS (ProteoGenix), Schiltigheim, France; host or cells: HEK293 (transient transfection)
assay.setup: 10 nM FTO, 200 ng m6A RNA probe, 2 h at RT
Description: The enzymatic assay was modified from Huang et al. The experiments were conducted in reaction buffer (50 mM Tris-HCl, pH 7.5, 300 μM 2OG, 280 μM (NH4)2Fe(SO4)2, and 2 mM L-ascorbic acid). […] After that, the amount of m^6A that was measured using EpiQuik m^6A RNA methylation Quantification Colorimetric Kit (Epigentek, Farmingdale, NY, USA). […]
observation.type: pIC50
Value format note: pIC50 is -log10 of concentration (mol/L); just state the number.

Exercise: Which value of pIC50 has been reported for Nc1c(C(=O)O)cnc2c(Cl)cccc12 [Compound 2] in the records?
Solution: 5.84

Exercise: Which value of pIC50 has been reported for Nc1cccc2cc(C(=O)O)cnc12 [Compound 3, 8-aminoquinoline-3-carboxylic acid] in the records?
Solution: 4.54
